Origin of measurements: a melting point compilation (Tetko et al.; mined from patent text by program, amines drawn as free bases though some values may be those of a salt)

readout.kind: melting point

| compound | melting point |
| --- | --- |
| COC(=O)CC[C@H](NC(=O)c1ccc(C(CO)CCCc2c(N)nc(N)nc2O)cc1)C(=O)OC (stereo partly specified) | 104 °C |
| OCCNCCc1c[nH]c2ccccc12 | 92 °C |
| COc1ccc2c(-c3ccccc3)c(C(=O)c3ccccc3)sc2c1 | 94 to 95.5 °C |

Hi! Can you tell me melting point for each of these compounds?
1. Cc1c(O)ncnc1C(F)F
2. C#CC1(O)C=CC2C3CCC4=CC(=O)CC(O)C4C3CCC21CC (stereo unspecified)
3. Oc1cnccc1CCCOc1cccnc1Oc1cc(Cl)cc(Cl)c1
4. O=C(c1ccccc1F)C1CCN(C(=O)Oc2ccccc2)CC1
5. CC(C)C(=O)N1CCC(CNc2ccc(Cl)cc2C(=O)Nc2ccc(Cl)cn2)CC1

Result block:
["166 to 167 °C", "129 to 130 °C", "99 to 101 °C", "95 to 96 °C", "99 to 101 °C"]

Need melting point for each of these compounds.
1. CC1(C)C(=O)NC(=O)c2ccccc21
2. O=C1SCc2c(Cl)c(Cl)c(Cl)c(Cl)c21
3. FC(F)(F)C(Cc1ccccc1)c1ccccc1 (stereo unspecified)

Result block:
1. 84 to 88 °C
2. 181 to 183 °C
3. 58 to 61 °C
